// data source = ChEMBL document CHEMBL5058577

Would you kindly list Population Fragmented Nuclei (%) for each of these compounds?
System: U2OS
procedure-details: Multiplex assay against U2OS
Type: toxicity, cell-based
condition-details: human, 48 h, 1 µM, compound concentration 1 uM, replicate 2
Respond with the bare value in %.

Query block: Consider the compound "CCc1cc2cc(NS(=O)(=O)c3ccc(C#N)cc3)ccc2n(CC)c1=O" and give its measured Population Fragmented Nuclei (%).
Result block: 19

Query block: Tell me the measured Population Fragmented Nuclei (%) of "CC(=O)Nc1cccc2c1c(Sc1ccc(Cl)cc1)c(C)n2CC(=O)O" , please.
Result block: 9

Query block: So what's the measured Population Fragmented Nuclei (%) for this one? "CN(C)C(=O)Cn1cc(-c2ccc(-c3cncc4ccccc34)cc2)cn1"
Result block: 20

Query block: # get_value(readout='Population Fragmented Nuclei (%)', item= Cl.N=C(N)NC(=O)Cc1c(Cl)cccc1Cl [GUANFACINE HYDROCHLORIDE] )
Result block: 16

Query block: Recorded Population Fragmented Nuclei (%) of "CN1CCN(c2cc(-c3ccccc3)nc(N)n2)CC1" , please.
Result block: 19

Query block: Population Fragmented Nuclei (%) for Cl.NCCc1ccc(O)c(O)c1 [DOPAMINE HYDROCHLORIDE] ?
Result block: 14

Query block: What Population Fragmented Nuclei (%) value was documented for this compound, "C[C@H](N)COC(=O)[C@@H](CCCCN)NC(=O)Cc1c(-c2ccc3ccccc3c2)[nH]c2c1ccc1ccccc12" ?
Result block: 17

Query block: What value of Population Fragmented Nuclei (%) has been recorded for this entry: "CC(C)COc1ccc(CNC(=O)N(Cc2ccc(F)cc2)C2CCN(C)CC2)cc1"
Result block: 12

Query block: I would be grateful if you could share the reported Population Fragmented Nuclei (%) for "Cc1c(CC(=O)O)c2cccnc2n1Cc1ccc(S(C)(=O)=O)cc1C(F)(F)F" .
Result block: 20

Query block: What does the data say about its Population Fragmented Nuclei (%)? Entry: "CC(C)c1noc(N2CCC(COc3ccc(-c4ccc(S(C)(=O)=O)cc4)nc3)CC2)n1"
Result block: 15

Query block: For the compound shown here, "CC(C)(C)c1cc(NC(=O)Nc2ccc(-c3cn4c(n3)sc3cc(OCCN5CCOCC5)ccc34)cc2)no1" , give the reported Population Fragmented Nuclei (%).
Result block: 16

Query block: Report Population Fragmented Nuclei (%) for "CCCCC(=O)N(Cc1ccc(-c2ccccc2-c2nnn[nH]2)cc1)[C@H](C(=O)O)C(C)C" please.
Result block: 20

Query block: Please report the recorded Population Fragmented Nuclei (%) for "N#Cc1cc(F)cc(-c2nc(-c3ccc(F)cn3)no2)c1" .
Result block: 15

Query block: State the recorded Population Fragmented Nuclei (%) for this entry: "Cc1onc(-c2ccccc2Cl)c1C(=O)N(C)c1ccc(Cl)cc1"
Result block: 12

Query block: # query: Population Fragmented Nuclei (%) of entry CCCCCC(O)/C=C/[C@H]1C(=O)CC(O)C1C/C=C\CCCC(=O)O (some centres undefined)
Result block: 13

Query block: If you can, please state the reported Population Fragmented Nuclei (%) value of "COc1cccc2c1c(NS(=O)(=O)c1ccc(Cl)s1)nn2Cc1cccc(CNC(=O)C(C)(C)O)c1" .
Result block: 22

Query block: Fill blank: measured Population Fragmented Nuclei (%) of the compound O=C(NCCN1CCC(n2c(=O)[nH]c3cc(Cl)ccc32)CC1)c1ccc(F)cc1 [HALOPEMIDE] is ____.
Result block: 17

Query block: Consider the compound shown here: Br.CS(=O)(=O)Nc1c(O)ccc2c1CCCC2C1=NCCN1 (centres undefined) What is its recorded Population Fragmented Nuclei (%)?
Result block: 13

Query block: Fill in: Population Fragmented Nuclei (%) of "CC(/C=C1\SC(=S)N(CCCC(=O)Nc2ccc(C(=O)O)c(O)c2)C1=O)=C\c1ccccc1" is ___
Result block: 11
